Test system: OVCAR-8
Assay: NCI tumour cell line growth inhibition, 48 h
The source made the active and inactive calls. Rule as the data show it: active = GI50 up to about 1.1 µM and inactive = higher.
GI50 values by entry

As a guide, the following entries are already answered.
                                   molecule  recorded_endpoint               result
0  Nc1ccc(C(=O)N/C(=C\C=C\c2ccco2)c2nc3c4c(ccc3[nH]2)C(=O)c2ccccc2C4=O)cc1               GI50   32.2 µM (inactive)
1  C=C1C(=O)CCC1C(=O)O (stereo unspecified)               GI50  > 100 µM (inactive)

Quick note, GI50 for O=C(CC(=O)c1ccccc1)C(=O)Nc1ccc(Cl)cc1 landed at > 100 µM (inactive)

Per the records, this molecule ( Cc1nc(N)sc1/N=N/c1cc(Cl)c([N+](=O)[O-])cc1Cl ) has GI50 equal to 14.6 µM (inactive)

# GI50 of CC1Nc2ccccc2NC1C=C(C#N)C#N (stereo unspecified) = 7.76 µM (inactive)

// Cn1c(=O)c(C2c3ccccc3Oc3c2c(=O)n(C)c2ccccc32)c(O)c2ccccc21 (stereo unspecified) : GI50 value = > 100 µM (inactive)

The measured GI50 associated with Fc1cc(C2=Nn3c(CNc4ccc(Cl)cc4)nnc3S/C2=C\c2ccc(-c3ccc(Cl)cc3)o2)c(Cl)cc1Cl reads 51.1 µM (inactive)

The reported GI50 of the molecule O=C1CN2C(c3ccccc3)=NN(c3ccc([N+](=O)[O-])cc3)C2(c2ccccc2)c2cc(Cl)ccc2N1CC1CC1 (stereo unspecified) was > 100 µM (inactive)

Looking up c1ccc2c(c1)CCc1c(-c3ccncc3)n[nH]c1-2 , I found its GI50 recorded as 29.4 µM (inactive)

The reported value for CN1CCN(CCCCNc2cc3c4ccccc4c(NCCCCN4CCN(C)CC4)cc3c3ccccc23)CC1 in terms of GI50 is 1.88 µM (inactive)

So for CCOC(=O)C1=C(C)NC(C)=C(C(=O)OCCNC(=O)c2ccc(N=[N+]=[N-])cc2)C1c1ccccc1C(F)(F)F (stereo unspecified) [AZIDOPINE] , the logged GI50 turned out to be 14.8 µM (inactive)

The reported GI50 of the molecule CCn1ncc(N=O)c1N was > 100 µM (inactive)

So for O=[N+]([O-])c1ccc2[nH]c(=S)[nH]c(=S)c2c1 , the logged GI50 turned out to be > 100 µM (inactive)

Measured GI50 of O=C1c2ccccc2C(=O)c2c(NCCCNCCO)ccc(NCCCNCCO)c21 : 7.74 µM (inactive)

Reported GI50 of COc1ccc(C(CC(=O)C(C)(C)CN2CCCCC2)SCCS(=O)(=O)O)cc1 (stereo unspecified) : 33.3 µM (inactive)

Measured GI50 of C/C=C(/CBr)CCC(Br)C(C)(C)Cl.C/C=C(\CBr)CCC(Br)C(C)(C)Cl (stereo unspecified) : > 10 µM (inactive)

Kindly note the recorded GI50 for c1ccc(/C(=N/Nc2ccncn2)c2ccccn2)cc1 , which is 16.6 µM (inactive)
